assay.target: Metallo-beta-lactamase type 2 (Bacteria)
Sequence (C7C422 whole entry): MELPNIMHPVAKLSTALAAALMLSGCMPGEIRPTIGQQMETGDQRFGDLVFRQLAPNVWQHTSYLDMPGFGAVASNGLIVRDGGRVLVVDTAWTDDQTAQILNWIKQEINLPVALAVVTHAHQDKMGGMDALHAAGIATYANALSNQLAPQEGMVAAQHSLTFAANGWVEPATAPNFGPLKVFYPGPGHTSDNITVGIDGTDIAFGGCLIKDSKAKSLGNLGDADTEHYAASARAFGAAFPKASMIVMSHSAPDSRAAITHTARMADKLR
assay.text: Inhibition of C-terminal His-tagged NDM-1 (unknown origin) extracted from Escherichia coli BL21 (DE3) using fluorescent cephalosporin as substrate preincubated for 10 mins followed by substrate addition by fluorescence based assay
quantity.name: IC50 (nM)
State just the number; it will be interpreted in nM.

IN: Need IC50 of O=C(Cc1ccccc1)N[C@@H]1C(=O)N2C(C(=O)O)=C(CSc3cccc4cccnc34)CS[C@H]12 , thanks.
OUT: 2310

====

assay.text: Cytotoxicity against HEK293T cells assessed as survival rate at 128 ug/ml incubated for 48 hrs by MTT assay
Assay type: toxicity, cell-based, HEK-293T
condition.context: human, at 128 µg/mL, read-out: Survival
quantity.name: viability at 48 h, 128 ug/ml

IN: Need viability at 48 h, 128 ug/ml of O=C(O)C1=C(C[Se]c2ccccc2C(=O)Nc2ccccc2)CS[C@@H]2[C@H](NCc3cc(Cl)cc(Cl)c3)C(=O)N12 , thanks.
OUT: > 100%

====

assay.target: Metallo-beta-lactamase type 2 (Bacteria)
assay.text: Inhibition of NDM-1 (unknown origin) using nitrocefin as substrate assessed as residual activity at 64 ug/ml preincubated for 15 mins followed by substrate addition by absorbance based assay relative to control
condition.context: dose 64.0 µg/ml
quantity.name: Activity (%)
State just the number; it will be interpreted in %.

IN: Need Activity of Cc1cc(C)cc(CN[C@@H]2C(=O)N3C(C(=O)O)=C(C[Se]c4ccccc4C(=O)Nc4ccccc4)CS[C@H]23)c1 , thanks.
OUT: 69.3

IN: Could you do the same for CCN(CC)[C@@H]1C(=O)N2C(C(=O)O)=C(C[Se]c3ccccc3C(=O)Nc3ccccc3)CS[C@H]12 , please?
OUT: 70.2

IN: Could you do the same for O=C(O)C1=C(C[Se]c2ccccc2C(=O)Nc2ccccc2)CS[C@@H]2[C@H](NCc3cc(Cl)nc(Cl)c3)C(=O)N12 , please?
OUT: 68.1
